- assay_system: T1, resistin antigen (UniProt Q9HD89 19-108, limits assumed)
- T1 construct: Used for the Octet assays and the monophage ELISAs, where only 'resistin antigen' is printed; tags not known; also called resistin antigen protein
- T1 sequence (looked up): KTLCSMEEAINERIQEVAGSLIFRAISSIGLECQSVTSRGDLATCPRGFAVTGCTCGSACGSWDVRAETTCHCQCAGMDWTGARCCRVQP
- assay_notes: Octet, resistin antigen on the biosensor, antibody in solution
Let's look at some binders and their measured Kd.
value_kind: Kd

1. RETN-5A2_LS_2D07 (antibody, human IgG1, V domains shown, Light chain shuffled variant of RETN-5A2, tested as IgG) VH: QVQLVQSGAEGRKPGSSVKVSCKVSGDTFSSYAISWVRQAPGQGLEWMGGIIPIFGAADYAQKFKGRVTISADESTSTAYMELSSLRSEDTAVYYCAKGPDYYGSFDPWGQGTLITVSS VL: QSALTQPASVSGSPGQSVTISCTGTSSDIGRYNRVSWYQHHPGKAPKLIIYDVSNRPSGVSNRFSGSKSGNTASLTISGLQAGDESDYYCSAYTRSSTWVFGGGTKLTVLR = ≤ 1 nM
2. RETN-5A2_LS_2H10 (antibody, human IgG1, V domains shown, Light chain shuffled variant of RETN-5A2, tested as IgG) VH: QVQLVQSGAEGRKPGSSVKVSCKVSGDTFSSYAISWVRQAPGQGLEWMGGIIPIFGAADYAQKFKGRVTISADESTSTAYMELSSLRSEDTAVYYCAKGPDYYGSFDPWGQGTLITVSS VL: NFMLTQPASVSGSPGQSITISCTGSSSDVGGYNYVTWYQQHPGKAPQLIIYDVTKRPSGVSNRFSGSKSGNSASLTISGLQAEDEADYYCSSYSSSTFYVFGTGTKVTVLR = ≤ 1 nM

Where do the numbers come from? From patent US20250019430A1.
